assayName: Pharmacokinetics in plasma after oral administration to ICR mice
Format: in vivo
appliedConditions: mouse, oral 10 mg/kg, plasma
# maps each entry to its half-life

compound: OCCOCc1cc(NC2CCOCC2)c2[nH]c(-c3ccccc3)cc2c1
half-life (h): 2.83
--
compound: OCc1cc(NC2CCCC2)c2[nH]c(-c3ccccc3)cc2c1 [Comparative Example, reference compound]
half-life (h): 1.4

###

assayName: Pharmacokinetics in plasma after oral administration to ICR mice
Type: in vivo
appliedConditions: mouse, plasma, oral 10 mg/kg, 1 hr
property: concentration at 1 h (ng/mL)

molecule: OCCOCc1cc(NC2CCOCC2)c2[nH]c(-c3ccccc3)cc2c1
endpointValue: 4440
//
molecule: OCc1cc(NC2CCCC2)c2[nH]c(-c3ccccc3)cc2c1 [Comparative Example, reference compound]
endpointValue: 2110
